B1: TTC32 (parent)
chain: YSAYIRRCACAASSDESPGSKCSP

Variants of: B1
ASSAY_NOTES: protein stability index of a GFP-peptide fusion (GPS, HEK-293T) (PSI 1-6); higher = more stable;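 note: lentivirally expressed fusions sorted by FACS into six bins by GFP to DsRed ratio, PSI derived from sequencing read proportions per bin multiplied by bin number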
EXPERIMENTAL_SETUP: c terminus: a fixed tail appended
Criterion: protein stability index meeting or surpassing 2. Met: Y. Not met: N.

# bool: protein stability index of C10H >= 2
Y

# bool: protein stability index of C22W >= 2
Y

# bool: protein stability index of A9W >= 2
N

# bool: protein stability index of Y1V >= 2
Y

# bool: protein stability index of R6E >= 2
Y

# bool: protein stability index of S2N >= 2
Y

# bool: protein stability index of C10N >= 2
Y

# bool: protein stability index of A11T >= 2
N

# bool: protein stability index of K21D >= 2
N

# bool: protein stability index of S14G >= 2
Y

# bool: protein stability index of A9P >= 2
Y

# bool: protein stability index of I5C >= 2
Y

# bool: protein stability index of A9H >= 2
N

# bool: protein stability index of R7E >= 2
Y

# bool: protein stability index of Y4P >= 2
Y

# bool: protein stability index of G19K >= 2
Y

# bool: protein stability index of Y4M >= 2
Y

# bool: protein stability index of I5K >= 2
Y

# bool: protein stability index of K21A >= 2
Y

# bool: protein stability index of S2E >= 2
Y

# bool: protein stability index of Y4T >= 2
Y

# bool: protein stability index of A3D >= 2
Y

# bool: protein stability index of I5A >= 2
N

# bool: protein stability index of Y1R >= 2
Y

# bool: protein stability index of A3F >= 2
N

# bool: protein stability index of S20F >= 2
N

# bool: protein stability index of S14A >= 2
Y

# bool: protein stability index of A11P >= 2
Y

# bool: protein stability index of S23T >= 2
Y

# bool: protein stability index of R7S >= 2
Y

# bool: protein stability index of I5F >= 2
Y

# bool: protein stability index of E16N >= 2
N

# bool: protein stability index of S17Y >= 2
N

# bool: protein stability index of P18T >= 2
Y
